target: Glutamate NMDA receptor; GRIN1/GRIN2A (Homo sapiens, UniProt Q05586+Q12879); assay: Displacement of [3H]-(+)-MK-801 from phencyclidine binding site of NMDA receptor in human frontal cortex after 22 hrs by scintillation counting analysis
Sequence (Q12879 whole entry, other chains not shown): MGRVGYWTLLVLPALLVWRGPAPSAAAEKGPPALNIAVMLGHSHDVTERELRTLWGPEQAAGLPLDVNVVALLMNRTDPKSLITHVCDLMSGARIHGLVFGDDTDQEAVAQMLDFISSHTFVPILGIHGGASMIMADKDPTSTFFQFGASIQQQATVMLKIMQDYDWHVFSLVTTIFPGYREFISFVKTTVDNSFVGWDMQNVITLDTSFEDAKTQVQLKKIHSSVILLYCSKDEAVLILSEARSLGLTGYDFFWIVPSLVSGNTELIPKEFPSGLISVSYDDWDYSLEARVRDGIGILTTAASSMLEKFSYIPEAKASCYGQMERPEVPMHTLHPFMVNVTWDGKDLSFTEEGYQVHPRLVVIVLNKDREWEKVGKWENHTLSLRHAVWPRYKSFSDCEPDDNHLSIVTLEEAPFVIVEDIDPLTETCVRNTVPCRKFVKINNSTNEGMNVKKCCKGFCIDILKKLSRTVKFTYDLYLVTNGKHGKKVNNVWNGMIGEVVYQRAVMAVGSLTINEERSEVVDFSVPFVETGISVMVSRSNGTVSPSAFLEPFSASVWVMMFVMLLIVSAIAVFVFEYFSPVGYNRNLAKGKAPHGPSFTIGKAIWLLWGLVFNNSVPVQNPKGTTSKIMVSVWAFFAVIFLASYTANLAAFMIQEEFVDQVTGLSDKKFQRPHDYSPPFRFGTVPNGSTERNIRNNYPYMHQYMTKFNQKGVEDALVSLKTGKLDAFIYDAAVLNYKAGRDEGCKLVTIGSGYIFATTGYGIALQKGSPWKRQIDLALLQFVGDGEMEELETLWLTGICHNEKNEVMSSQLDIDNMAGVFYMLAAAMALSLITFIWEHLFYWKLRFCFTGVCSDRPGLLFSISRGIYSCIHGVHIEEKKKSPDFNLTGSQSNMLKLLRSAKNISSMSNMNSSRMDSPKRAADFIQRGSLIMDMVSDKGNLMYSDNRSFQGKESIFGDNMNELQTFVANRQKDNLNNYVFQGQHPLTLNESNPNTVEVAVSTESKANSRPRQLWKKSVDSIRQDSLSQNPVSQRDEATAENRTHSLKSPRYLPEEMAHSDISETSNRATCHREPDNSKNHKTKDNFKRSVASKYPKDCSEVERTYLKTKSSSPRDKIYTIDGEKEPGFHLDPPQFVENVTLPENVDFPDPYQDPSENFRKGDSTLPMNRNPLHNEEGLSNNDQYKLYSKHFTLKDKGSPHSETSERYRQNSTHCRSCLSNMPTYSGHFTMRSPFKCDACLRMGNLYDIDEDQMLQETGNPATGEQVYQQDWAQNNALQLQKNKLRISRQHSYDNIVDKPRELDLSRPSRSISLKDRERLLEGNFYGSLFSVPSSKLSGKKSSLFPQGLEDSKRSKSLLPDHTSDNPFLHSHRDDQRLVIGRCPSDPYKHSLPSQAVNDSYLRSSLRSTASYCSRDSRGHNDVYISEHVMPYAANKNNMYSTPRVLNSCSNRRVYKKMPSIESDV
Assay readout: Ki
# output: number + unit

I would be grateful if you could share the reported Ki for NC12CC3CC(CC(C3)C1)C2 [AMANTADINE] . 10 µM

----------
assay: Displacement of [3H]-(+)-MK-801 from phencyclidine binding site of NMDA receptor in pig membranes after 150 mins by scintillation counting analysis; format: cell membranes, Sus scrofa
Assay readout: Ki (µM)
Report as a plain number; the unit µM is understood.

Worked set:
{"Compound": "NC12CC3CC(CC(C3)C1)C2", "Assay readout": "Ki", "Units": "µM", "Reported measurement": 11}
{"Compound": "C[C@]12N[C@H](Cc3ccccc31)c1ccccc12", "Assay readout": "Ki", "Units": "µM", "Reported measurement": 0.003}
{"Compound": "N[C@@H]1C[C@@]23CCCC[C@@]2(CCC3)C1", "Assay readout": "Ki", "Units": "µM", "Reported measurement": 16}
{"Compound": "N[C@H]1C[C@@]23CCCC[C@@]2(CCC3)C1", "Assay readout": "Ki", "Units": "µM", "Reported measurement": 11}
{"Compound": "NC1CC23CCCCC2(CCC3)C1 (mixture of isomers)", "Assay readout": "Ki", "Units": "µM", "Reported measurement": 10.5}

Pending compound:
What does the record list as Ki for CC12CC3CC(C)(C1)CC(N)(C3)C2 [MEMANTINE] ? 9.74

----------
test system: Influenza A virus; experiment: Antiviral activity against Influenza virus A/FPV/Bratislava/79(H7N7) infected in human A549 cells assessed as viral replication at 5 uM after 24 hrs by plaque assay relative to control; format: functional
Assay readout: Activity (%)
Numbers only here, please. The scale is %.

Here are 2 molecules together with their reported answers.
{"Molecule": "N[C@@H]1C[C@@]23CCCC[C@@]2(CCC3)C1", "Units": "%", "Activity": 97}
{"Molecule": "NC12CC3CC(CC(C3)C1)C2", "Units": "%", "Activity": 3.9}

Tell me the measured Activity of N[C@H]1C[C@@]23CCCC[C@@]2(CCC3)C1 , please. 116

Another: NC1CC23CCCCC2(CCC3)C1 (mixture of isomers) 65
